IC50: recorded values
- Target or system: T1, human GITR overexpressed on CHO cells (CHO-GITR) (human, UniProt Q9Y5U5 26-241)
- T1 construct: whole, on cells; also called cell surface GITR protein; antigen expressed on the cell surface
- T1 sequence (looked up): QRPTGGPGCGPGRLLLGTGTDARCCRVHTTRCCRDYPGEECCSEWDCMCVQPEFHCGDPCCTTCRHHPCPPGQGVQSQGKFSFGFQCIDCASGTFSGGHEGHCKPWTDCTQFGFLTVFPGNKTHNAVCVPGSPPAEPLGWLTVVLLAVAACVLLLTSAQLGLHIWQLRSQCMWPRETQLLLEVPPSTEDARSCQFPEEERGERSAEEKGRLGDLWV
- Test details: flow cytometry on CHO-GITR cells, PE anti-human Fc detection, MFI; direct binding titration, the table row is labelled IC50, nM is taken from the concentration axis
Measured metric: IC50 (µM)

Binder | Number
hcIgG-02 (antibody, V domains shown, also called heavy-chain antibody of Nb-02) VH: QVQLQESGGGSVQAGGSLRLSCAASRDTYTRYFMGWFRQTPGKEGEGVAVLLPGGDYTFYADSVKGRFTITQDSAKNTVYLQMNSLKPEDTAMYYCAADVTVGSRWSQASNYNYWGQGTQVTVSS | 0.0413
hcIgG-10 (antibody, V domains shown, also called heavy-chain antibody of Nb-10) VH: QVQLQESGGGLVQPGGSLRLSCAASGFAFGSSHMSWVRRAPGKGLEWVSTIHSGGGFGDYANSVQGRFTISRDVAKNTLYLQMNSLKPEDTAIYYCALATDWRKPPGQGTQVTVSS | 0.00147
hcIgG-16 (antibody, V domains shown, also called heavy-chain antibody of Nb-16) VH: QVQLQESGGGSVQAGGSLRLSCAASGYTYNKYSWGWFRQAPGKEREGVAGIDSDGSTSYADSVKGRFTISKDNTKNTLYLQMNSLKPEDTAMYYCAASDWVSAIQALGVLAVRPYEYWGQGTQVTVSS | 0.0341
